# Target Entity: human TLR7 (Homo sapiens, UniProt Q9NYK1)
# Construct: host or cells: HEK293
# Procedure Details: hTLR7 agonist reporter assay in HEK293 cells (NFκB-SEAP)
# Assay type: cell-based
# Measurement Setup: Table 1; hTLR7 ED50 over hTLR8 ED50
Property Measured: hTLR7/8 ratio

Use the examples below as a reference point.
>  <Compound>
CCCCCCCC/C=C\CCCCCCCC(=O)OC[C@H](COP(=O)(O)OCCn1c(CCCC)nc2c(N)nc3ccccc3c21)OC(=O)CCCCCCC/C=C\CCCCCCCC [Comparative Example 2, reference compound]

>  <hTLR7/8 ratio>
1.3

$$$$
>  <Compound>
CCCCCCCC/C=C\CCCCCCCC(=O)OC[C@H](COP(=O)(O)OCCOc1ccc2c(c1)nc(N)c1nc(CCCC)n(CCO)c12)OC(=O)CCCCCCC/C=C\CCCCCCCC

>  <hTLR7/8 ratio>
11.0

$$$$

(1) CCCCc1nc2c(N)nc3cc(OCCO)ccc3c2n1CCO
(2) CCCCc1nc2c(N)nc3ccccc3c2n1CCO [Comparative Example 1, reference compound]
Req: Input pair: 1 , 2 . Output: entry with lower hTLR7/8 ratio. // caller expects the label of the chosen entry
Resp: 2

* * *

# Test system: human peripheral blood mononuclear cells (hPBMCs)
# Procedure Details: IFN-α induction in hPBMCs
# Type: cell-based
# Measurement Setup: 24 h, FIG. 14, another occasion
Property Measured: IFN-α induction, in words

>  <Molecule>
CCCCc1nc2c(N)nc3cc(OCCCCO)ccc3c2n1CCO

>  <Result>
did not induce IFN-α

$$$$
>  <Molecule>
CCCCc1nc2c(N)nc3ccccc3c2n1CCO [Comparative Example 1, reference compound]

>  <Result>
Weaker effects

$$$$
>  <Molecule>
CCCCc1nc2c(N)nc3cc(OCCO)ccc3c2n1CCO

>  <Result>
Weaker effects

$$$$
>  <Molecule>
CCCCc1nc2c(N)nc3cc(OCCOCCOCCO)ccc3c2n1CCO

>  <Result>
did not induce IFN-α

$$$$

* * *

# Target Entity: human TLR8 (Homo sapiens)
# Construct: host or cells: HEK293
# Sequence (Q9NR97 27-1041): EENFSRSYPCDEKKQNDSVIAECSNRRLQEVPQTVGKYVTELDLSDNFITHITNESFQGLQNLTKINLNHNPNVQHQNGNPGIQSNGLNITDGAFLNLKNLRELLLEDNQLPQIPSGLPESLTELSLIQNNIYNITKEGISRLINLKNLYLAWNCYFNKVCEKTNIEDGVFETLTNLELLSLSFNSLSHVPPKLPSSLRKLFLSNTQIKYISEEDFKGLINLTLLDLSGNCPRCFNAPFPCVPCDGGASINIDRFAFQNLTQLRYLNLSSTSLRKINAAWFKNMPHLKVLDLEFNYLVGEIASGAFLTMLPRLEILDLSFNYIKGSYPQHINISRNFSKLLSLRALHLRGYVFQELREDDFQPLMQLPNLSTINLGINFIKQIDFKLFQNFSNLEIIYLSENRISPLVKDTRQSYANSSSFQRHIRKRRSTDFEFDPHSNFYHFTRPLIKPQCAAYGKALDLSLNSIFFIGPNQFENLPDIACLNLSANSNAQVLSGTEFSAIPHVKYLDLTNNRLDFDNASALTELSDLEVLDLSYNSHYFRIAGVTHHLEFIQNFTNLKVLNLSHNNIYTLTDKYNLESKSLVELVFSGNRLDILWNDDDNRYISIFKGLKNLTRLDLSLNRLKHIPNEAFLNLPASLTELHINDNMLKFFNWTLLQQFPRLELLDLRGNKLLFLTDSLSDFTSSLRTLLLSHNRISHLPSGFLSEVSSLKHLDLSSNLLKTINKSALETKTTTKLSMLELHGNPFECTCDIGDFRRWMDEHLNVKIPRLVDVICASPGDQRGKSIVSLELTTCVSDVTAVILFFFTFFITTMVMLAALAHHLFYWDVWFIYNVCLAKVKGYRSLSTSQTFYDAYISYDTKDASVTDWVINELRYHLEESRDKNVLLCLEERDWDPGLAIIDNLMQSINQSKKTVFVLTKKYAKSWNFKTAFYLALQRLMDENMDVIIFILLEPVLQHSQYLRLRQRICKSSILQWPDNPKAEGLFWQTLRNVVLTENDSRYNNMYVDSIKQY
# Procedure Details: hTLR8 agonist reporter assay in HEK293 cells (NFκB-SEAP)
# Assay type: cell-based
# Measurement Setup: Table 2, FIG. 4, another occasion; * = only very low levels of NFKB activation were detected; read-out: hTLR8 ED50
pEC50: −log10 of the molar value.
Property Measured: pEC50

Use the examples below as a reference point.
>  <Compound>
CCCCc1nc2c(N)nc3cc(OCCO)ccc3c2n1CCO [Comparative Example 3]

>  <pEC50>
6.10

$$$$
>  <Compound>
CCCCc1nc2c(N)nc3cc(OCCOP(=O)(O)OCCOCCOCCO[C@H]4CC[C@@]5(C)C(=CC[C@H]6[C@@H]7CC[C@H]([C@H](C)CCCC(C)C)[C@@]7(C)CC[C@@H]65)C4)ccc3c2n1CCO [Example 4]

>  <pEC50>
4.50

$$$$

(P) CCCCCCCC/C=C\CCCCCCCC(=O)OC[C@H](COP(=O)(O)OCCOc1ccc2c(c1)nc(N)c1nc(CCCC)n(CCO)c12)OC(=O)CCCCCCC/C=C\CCCCCCCC [Example 1]
(Q) CCCCCCCC/C=C\CCCCCCCC(=O)OC[C@H](COP(=O)(O)OCCn1c(CCCC)nc2c(N)nc3ccccc3c21)OC(=O)CCCCCCC/C=C\CCCCCCCC [Comparative Example 2, reference compound]
(R) CCCCc1nc2c(N)nc3ccccc3c2n1CCO [Comparative Example 1, reference compound]
(S) CCCCCCCC/C=C\CCCCCCCC(=O)OC[C@@H](O)COP(=O)(O)OCCOc1ccc2c(c1)nc(N)c1nc(CCCC)n(CCO)c12 [Example 3]
Req: Sort entries by pEC50 from minimum to maximum value. Return value: ordered labels per request.
Resp: Q, S, P, R

* * *

# Target Entity: human TLR7 (Homo sapiens, UniProt Q9NYK1)
# Construct: host or cells: HEK293
# Sequence (Q9NYK1 27-1049): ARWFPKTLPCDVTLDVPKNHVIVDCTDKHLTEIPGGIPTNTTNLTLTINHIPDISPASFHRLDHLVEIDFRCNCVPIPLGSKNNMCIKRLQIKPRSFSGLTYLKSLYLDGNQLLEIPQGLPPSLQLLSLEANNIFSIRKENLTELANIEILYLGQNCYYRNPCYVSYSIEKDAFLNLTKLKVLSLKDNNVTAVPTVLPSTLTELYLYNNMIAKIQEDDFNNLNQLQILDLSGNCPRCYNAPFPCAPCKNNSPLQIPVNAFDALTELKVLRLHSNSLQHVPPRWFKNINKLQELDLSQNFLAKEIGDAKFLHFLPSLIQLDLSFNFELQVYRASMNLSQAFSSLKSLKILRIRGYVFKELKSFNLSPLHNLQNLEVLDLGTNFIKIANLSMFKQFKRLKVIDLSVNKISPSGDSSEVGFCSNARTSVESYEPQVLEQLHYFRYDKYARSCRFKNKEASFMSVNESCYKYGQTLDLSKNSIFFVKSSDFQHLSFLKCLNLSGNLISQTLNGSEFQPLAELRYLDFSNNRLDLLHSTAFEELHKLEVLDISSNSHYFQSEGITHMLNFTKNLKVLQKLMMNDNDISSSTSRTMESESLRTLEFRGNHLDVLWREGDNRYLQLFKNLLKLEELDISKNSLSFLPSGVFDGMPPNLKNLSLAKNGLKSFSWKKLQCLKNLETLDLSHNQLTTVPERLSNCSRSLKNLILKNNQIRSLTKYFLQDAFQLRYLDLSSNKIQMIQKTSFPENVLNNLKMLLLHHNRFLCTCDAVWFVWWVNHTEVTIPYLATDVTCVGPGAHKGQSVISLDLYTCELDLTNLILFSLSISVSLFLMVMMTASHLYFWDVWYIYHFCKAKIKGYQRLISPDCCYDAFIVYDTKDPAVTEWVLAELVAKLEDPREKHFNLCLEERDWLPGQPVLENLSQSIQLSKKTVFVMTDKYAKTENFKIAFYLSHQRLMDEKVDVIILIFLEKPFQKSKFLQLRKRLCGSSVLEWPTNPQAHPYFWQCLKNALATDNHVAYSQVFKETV
# Procedure Details: hTLR7 agonist reporter assay in HEK293 cells (NFκB-SEAP)
# Assay type: cell-based
# Measurement Setup: Table 3, FIG. 5, another occasion; * = only very low levels of NFKB activation were detected; read-out: hTLR7 ED50
Property Measured: EC50 (µM)

>  <Molecule>
CCCCCCCC/C=C\CCCCCCCC(=O)OC[C@H](COP(=O)(O)OCCCCOc1ccc2c(c1)nc(N)c1nc(CCCC)n(CCO)c12)OC(=O)CCCCCCC/C=C\CCCCCCCC [Example 5]

>  <Endpoint Unit>
µM

>  <EC50>
10.5

$$$$

(I) CCCCCCCC/C=C\CCCCCCCC(=O)OC[C@H](COP(=O)(O)OCCOCCOCCOc1ccc2c(c1)nc(N)c1nc(CCCC)n(CCO)c12)OC(=O)CCCCCCC/C=C\CCCCCCCC [Example 6]
(II) CCCCc1nc2c(N)nc3cc(OCCCCO)ccc3c2n1CCO [Comparative Example 4]
Req: Input pair: I , II . Output: entry with lower EC50. // caller expects the label of the chosen entry
Resp: II
